// reported Kd for each item listed
target: T1, cynomolgus monkey BCMA (cynomolgus monkey, UniProt A0A2K5UD97 1-53); experiment: SPR, IgG on chip, cyBCMA analyte, 37C
T1 construct: Soluble analyte in SPR; construct not described; also called cyBCMA; Cyno BCMA
T1 sequence (A0A2K5UD97 entry or part of it): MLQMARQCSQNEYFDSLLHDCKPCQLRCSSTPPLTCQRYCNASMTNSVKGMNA
Property Name: Kd (nM)

{"columns": ["Binder", "Value"],
 "data": [
  ["L3.PY/L3.KY/H2.QR (antibody, V domains shown, IgG) VH: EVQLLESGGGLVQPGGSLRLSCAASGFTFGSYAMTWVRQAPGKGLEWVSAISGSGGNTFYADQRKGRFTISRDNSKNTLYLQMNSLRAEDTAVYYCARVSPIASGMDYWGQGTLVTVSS VL: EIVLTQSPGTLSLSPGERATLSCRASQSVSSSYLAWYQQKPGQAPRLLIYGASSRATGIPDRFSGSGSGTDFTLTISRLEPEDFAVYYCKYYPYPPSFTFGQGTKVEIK", 3.78],
  ["L3.PY/L3.KF/H3.AE (antibody, V domains shown, IgG) VH: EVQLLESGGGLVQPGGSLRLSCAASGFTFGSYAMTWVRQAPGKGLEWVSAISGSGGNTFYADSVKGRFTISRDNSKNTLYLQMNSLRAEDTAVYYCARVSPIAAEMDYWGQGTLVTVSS VL: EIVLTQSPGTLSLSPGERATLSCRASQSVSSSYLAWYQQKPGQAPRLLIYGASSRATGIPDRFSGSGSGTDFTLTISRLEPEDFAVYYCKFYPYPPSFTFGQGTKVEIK", 3.05],
  ["L3.PY/L3.KY/H2.DY (antibody, V domains shown, IgG) VH: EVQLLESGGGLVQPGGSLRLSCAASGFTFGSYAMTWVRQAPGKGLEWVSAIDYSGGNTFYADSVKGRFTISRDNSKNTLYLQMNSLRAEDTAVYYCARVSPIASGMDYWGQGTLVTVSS VL: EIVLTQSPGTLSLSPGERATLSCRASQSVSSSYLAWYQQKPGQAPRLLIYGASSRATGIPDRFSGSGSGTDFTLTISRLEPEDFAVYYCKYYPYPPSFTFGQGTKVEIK", 1.24],
  ["L3.PY/L1.FF/H2.QR (antibody, V domains shown, IgG) VH: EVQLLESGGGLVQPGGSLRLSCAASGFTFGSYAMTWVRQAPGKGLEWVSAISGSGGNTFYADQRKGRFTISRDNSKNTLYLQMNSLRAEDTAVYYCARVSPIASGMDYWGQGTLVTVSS VL: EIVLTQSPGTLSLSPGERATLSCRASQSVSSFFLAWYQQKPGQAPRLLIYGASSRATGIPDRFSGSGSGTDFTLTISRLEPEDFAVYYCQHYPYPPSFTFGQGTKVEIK", 1.65],
  ["L3.PY/L1.FF/H2.HA (antibody, V domains shown, IgG) VH: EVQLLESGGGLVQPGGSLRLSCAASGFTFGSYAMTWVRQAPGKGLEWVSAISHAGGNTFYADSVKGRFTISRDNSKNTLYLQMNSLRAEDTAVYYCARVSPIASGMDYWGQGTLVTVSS VL: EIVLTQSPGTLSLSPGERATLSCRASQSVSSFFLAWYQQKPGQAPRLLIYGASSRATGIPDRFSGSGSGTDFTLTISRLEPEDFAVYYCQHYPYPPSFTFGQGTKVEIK", 1.79]
]}
